target: T1, human GPC3-his tag protein (human, UniProt P51654 25-559, limits assumed); assay: SPR Biacore 8K, mAb captured, one or two doses GPC3-his
T1 construct: recombinant soluble antigen used as analyte in all Biacore runs; also called recombinant GPC3 protein; rhGPC3-His; not shown: His tag
readout: koff

Q) Give its koff value. Item: 52H5D3B8-13# chimeric mAb (antibody, V domains shown, CDR3 mutant of the 52H5D3B8 chimeric mAb (human IgG1)) VH: QVQLQQSGAELVRPGASVKLSCKALGYTFTDYEMHWVKQTPVHGLEWIGAIHPGSGGTAYNQKFKGKATLTADKFSSTGYMELSSLTSEDSAVYYCTRYYSFAYWGQGTLVTVSA VL: DVVMTQTPLSLPVSLGDQASISCRSSQSLVHSNGNTYLQWYLQKPGQSPKLLIYKVSNRFSGVPDRFSGSGSGTDFILKISRVEAEDLGVYFCSQSTHVPYTFGGGTKLEIK
A) 0.00143 s⁻¹
